assay: In situ intestinal absorption, rat ligated intestinal loop model; type: in vivo; details: rat ligated jejunal loop; 2.0 h
readout label: Residual rate, Relative Content 2.0 h

Some solved cases for reference:
- OC[C@H]1OC(O)[C@H](O)[C@@H](O)[C@@H]1O (some centres unmarked) [Glucose, reference compound]: 9.1 ± 0.4 % of 0 h
- O=S(=O)([O-])O[C@@H]([C@H](O)[C@H](O)[C@@H](O)CO)[C@H](O)C[S+]1C[C@@H](O)[C@H](O)[C@H]1CO (some centres unmarked): 99.7 ± 2.7 % of 0 h
- O=S(=O)([O-])O[C@@H](CO)[C@H](O)C[S@+]1C[C@@H](O)[C@H](O)[C@H]1CO: 97.6 ± 1.8 % of 0 h
- OCCN1C[C@H](O)[C@@H](O)[C@H](O)[C@H]1CO [Miglitol, miglitol, reference compound]: 52.2 ± 4.7 % of 0 h

Okay, now this molecule:
Input: What value of Residual rate, Relative Content 2.0 h has been recorded for this entry: OC[C@@H]1[C@@H](O)[C@H](O)C[S@@+]1C[C@@H](O)[C@@H](O)[C@H](O)[C@H](O)[C@@H](O)CO
Output: 96.6 ± 1.7 % of 0 h

====

Documented Residual rate, Relative Content 0.5 h across a set of compounds
assay: In situ intestinal absorption, rat ligated intestinal loop model; format: in vivo; settings: rat ligated jejunal loop; 0.5 h

Some solved cases for reference:
* O=S(=O)([O-])O[C@@H]([C@H](O)[C@H](O)[C@@H](O)CO)[C@H](O)C[S+]1C[C@@H](O)[C@H](O)[C@H]1CO (some centres unmarked) | 98.1 ± 2.6 % of 0 h
* OC[C@H]1OC(O)[C@H](O)[C@@H](O)[C@@H]1O (some centres unmarked) [Glucose, reference compound] | 32.5 ± 0.5 % of 0 h
* OC[C@@H]1[C@@H](O)[C@H](O)C[S@@+]1C[C@@H](O)[C@@H](O)[C@H](O)[C@H](O)[C@@H](O)CO | 100.0 ± 2.6 % of 0 h
* OCCN1C[C@H](O)[C@@H](O)[C@H](O)[C@H]1CO [Miglitol, miglitol, reference compound] | 87.6 ± 1.4 % of 0 h

Okay, now this compound:
Input: What value of Residual rate, Relative Content 0.5 h has been recorded for this entry: O=S(=O)([O-])O[C@@H](CO)[C@H](O)C[S@+]1C[C@@H](O)[C@H](O)[C@H]1CO
Output: 98.7 ± 2.5 % of 0 h
